Task for the reader: assign each of the following compounds its reported IC50.
tested on: SARS-CoV-2; test: microbe, parasite or virus in culture; details: Severe acute respiratory syndrome coronavirus 2, Vero C1008, 48 h

Cc1ccc(S(=O)(=O)NC(=O)NC2C3CCC(C)(C2O)C3(C)C)cc1 (stereo unspecified)	> 20 µM
COc1ccc2c3c1O[C@H]1[C@@H](O)C=C[C@H]4C(C2)N(C)CCC341 (stereo partly specified)	> 20 µM

Hi, could you look up IC50 for each item in my list?
1. CN1CCC(COc2cnc(-c3cccc(Cn4nc(-c5cccc(C#N)c5)ccc4=O)c3)nc2)CC1
2. CCCCC[C@H](O)CC[C@@H]1[C@H]2Cc3cccc(OCC(=O)O)c3C[C@H]2C[C@H]1O
3. O=[N+]([O-])O[C@@H]1CO[C@H]2[C@@H]1OC[C@@H]2O [ISOSORBIDE MONONITRATE]
4. C=C(C)[C@@H]1[C@H]2OC(=O)[C@H]1[C@]1(O)C[C@H]3O[C@]34C(=O)O[C@H]2[C@]14C
5. Nc1nc(=O)c2sc(=O)n([C@@H]3O[C@H](CO)[C@@H](O)[C@H]3O)c2[nH]1
6. COCc1cccc(C[C@H](O)/C=C/[C@H]2[C@H](O)CC(=O)[C@@H]2CCSCCCC(=O)OC)c1
7. N[C@@H]1CCCCN(c2c(F)cc3c(=O)c(C(=O)O)cn(C4CC4)c3c2Cl)C1
8. CCN(CC)CCOC(=O)C(c1ccccc1)N1CCCCC1 (stereo unspecified)

Resp:
> 100 µM
> 20 µM
> 20 µM
> 20 µM
> 25.1 µM
> 20 µM
> 20 µM
> 20 µM

# batch: return IC50 for each of the 5 compounds below
1. CC(=O)N[C@H]1[C@H]([C@H](O)[C@H](O)CO)O[C@](O)(C(=O)O)C[C@@H]1O
2. CCc1[nH]c(=O)[nH]c1C(=O)c1ccncc1
3. COc1ccc(C(=O)Nc2c(Cl)cncc2Cl)cc1OC1CCCC1
4. CC[C@H](C)C(=O)O[C@H]1CCC=C2C=C[C@H](C)[C@H](CC[C@@H]3C[C@@H](O)CC(=O)O3)[C@H]21
5. NCC1(CC(=O)O)CCCCC1

Resp:
1. > 50.1 µM
2. > 20 µM
3. > 20 µM
4. > 20 µM
5. > 20 µM

For reference, reported IC50 for C[C@@H]1C(=O)O[C@H]2[C@H](O)[C@]34[C@@H]5OC(=O)[C@]3(O[C@@H]3OC(=O)[C@H](O)C34C(C(C)(C)C)C5O)[C@@]12O (stereo partly specified) stands at > 20 µM

----------
experiment: in vitro; settings: chlorocebus sabaeus, Vero E6 (Vero C1008) cells, CC50
Give CC50 at 48 h for every item shown.

Nc1ccc2cc3ccc(N)cc3nc2c1 [PROFLAVINE]	~6.61 µM
O=c1ccc2ccc(OCCCCN3CCN(c4cccc5sccc45)CC3)cc2[nH]1 [BREXPIPRAZOLE]	12 µM
Cc1cccc(C)c1NC(=O)CN1CCN(CCCC(c2ccc(F)cc2)c2ccc(F)cc2)CC1 [LIDOFLAZINE]	8.41 µM

Read the next record carefully.
What the record says about COC(=O)C1C2CC3c4[nH]c5cc(OC)ccc5c4CCN3CC2CC(OC(=O)/C=C/c2cc(OC)c(OC)c(OC)c2)C1OC (centres undefined) : CC50 at 48 h is 5.5 µM

Source listed as ChEMBL document CHEMBL4651402.
